# Target Or System: T1, Bdf1 bromodomain 2 (GST-tagged, WT) (Saccharomyces cerevisiae (strain ATCC …, UniProt P35817))
# T1 chain: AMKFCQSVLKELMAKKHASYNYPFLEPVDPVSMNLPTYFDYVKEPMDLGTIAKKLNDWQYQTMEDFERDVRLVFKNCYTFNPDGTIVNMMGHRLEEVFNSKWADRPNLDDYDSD
# Test: histone peptide array probed with recombinant GST-bromodomain, signal normalised to myc peptide control
Non-standard residues stand in square brackets, D forms with d. No end group written: not given here. Arg(Me2a) = CN(C)C(=N)NCCC[C@H](N)C(=O)O; Lys(Me3) = C[N+](C)(C)CCCC[C@H](N)C(=O)O; Arg(Me2s) = CN=C(NC)NCCC[C@H](N)C(=O)O; pT = C[C@@H](OP(=O)(O)O)[C@H](N)C(=O)O; pS = N[C@@H](COP(=O)(O)O)C(=O)O; Lys(Me) = CNCCCC[C@H](N)C(=O)O
In this section we review reported binding score values for a set of binders.
Quantity Measured: binding score

* ARTKQTARKSTGGKAPRKQ (A Rme2s T Kme2 Q T A Rme2s Kme1 S T G G K A P R K Q) | 0.00423
* ARTKQTARKSTGGKAPRKQ (A R T K Q T A Rme2a Kme2 S pT G G K A P R K Q) | 0
* ARTKQTARKSTGGKAPRKQ (A R T K Q T A R K pS T G G K A P R K Q) | 0
* ARTKQTARKSTGGKAPRKQ (A R T K Q T A Rme2s Kme3 S pT G G K A P R K Q) | 0.00561
* SGRGKQGGKARAKAKSRSS (histone peptides carry modifications given inline in the sequence and in columns 4-7 (Kac, Kme1/2/3, Rme2a/s, Cit, pS/pT); N-terminus free or acetylated) [H2a 1-19] | 0.0141
* PDPAK(Ac)SAPAPKKG[pS]KKAVT [H2B 1-19] | 0
* ARTK(Ac)QTA[Arg(Me2s)][Lys(Me)]STGGKAPRKQ | 0.00148
* A[Arg(Me2s)]T[Lys(Me3)]QTA[Arg(Me2a)][Lys(Me)]STGGKAPRKQ | 0
* ARTKQTARKSTGGKAPRKQ (A R T Kme1 Q T A Rme2s Kme2 S T G G K A P R K Q) | 0.00364
* ARTKQTA[Arg(Me2a)][Lys(Me)]S[pT]GGKAPRKQ | 0
* ARTKQTARKSTGGKAPRKQ (A Rme2a T Kme1 Q T A R Kme2 S T G G K A P R K Q) | 0.0062
* ARTKQTARKSTGGKAPRKQ (A Rme2a T Kme3 Q T A Rme2a Kme1 S T G G K A P R K Q) | 0
